# protocol: physchem
# test.settings: octanol/water phosphate buffer, pH 7.4
assay.readout: logD

INSERT INTO assay_data (compound, quantitative_readout) VALUES
  ('CCNC(=O)c1ccc(Nc2nccc(N3C[C@@H]4CC[C@H]3CN4C(=O)C3CC3)n2)cc1', 2.16),
  ('CCNC(=O)N1C2CC[C@@H]1CN(c1ccnc(Nc3cnn(C)c3)n1)C2 (single isomer, unassigned)', 1.44),
  ('CCNC(=O)c1ccc(Nc2nccc(N3C[C@H]4C[C@@H]3CN4C(=O)CC#N)n2)cc1', 0.9),
  ('CCNC(=O)c1ccc(Nc2ncc(F)c(N3CC4CC[C@H](C3)N4C(=O)C3CC3)n2)cc1 (single isomer, unassigned)', 2.88),
  ('CCNC(=O)c1ccc(Nc2nccc(N3C[C@H]4C[C@@H](C3)N4C(=O)C3CC3)n2)cc1', 2.15);

A: Cn1cc(Nc2ncc(F)c(N3CC4CC[C@H](C3)N4C(=O)C3CC3)n2)cn1 (single isomer, unassigned)
B: CCNC(=O)c1ccc(Nc2nccc(N3C[C@@H]4C[C@H]3CN4C(=O)CC#N)n2)cc1
## Task Of A and B , which carries the smaller reported logD figure? Write down the label attached to your selection.
## Result B

###

# tested.on: UniProt O60674
assay.readout: IC50 (µM)

I: Cn1cc(Nc2nccc(N3CC4CC[C@H](C3)N4C(=O)NCC(F)(F)F)n2)cn1 (single isomer, unassigned)
II: CCNC(=O)c1ncc(Nc2ncc(F)c(N3CC4CC[C@H](C3)N4C(=O)C3CC3)n2)cc1C (single isomer, unassigned)
III: Cn1cc(Nc2ncc(F)c(N3CC4CC[C@H](C3)N4C(=O)C3CC3)n2)cn1 (single isomer, unassigned)
## Task Reorder the items by IC50, least to greatest. List the labels in the requested order.
## Result I, III, II

###

# tested.on: Tyrosine-protein kinase JAK1 (Homo sapiens)
# Sequence (P23458 whole entry): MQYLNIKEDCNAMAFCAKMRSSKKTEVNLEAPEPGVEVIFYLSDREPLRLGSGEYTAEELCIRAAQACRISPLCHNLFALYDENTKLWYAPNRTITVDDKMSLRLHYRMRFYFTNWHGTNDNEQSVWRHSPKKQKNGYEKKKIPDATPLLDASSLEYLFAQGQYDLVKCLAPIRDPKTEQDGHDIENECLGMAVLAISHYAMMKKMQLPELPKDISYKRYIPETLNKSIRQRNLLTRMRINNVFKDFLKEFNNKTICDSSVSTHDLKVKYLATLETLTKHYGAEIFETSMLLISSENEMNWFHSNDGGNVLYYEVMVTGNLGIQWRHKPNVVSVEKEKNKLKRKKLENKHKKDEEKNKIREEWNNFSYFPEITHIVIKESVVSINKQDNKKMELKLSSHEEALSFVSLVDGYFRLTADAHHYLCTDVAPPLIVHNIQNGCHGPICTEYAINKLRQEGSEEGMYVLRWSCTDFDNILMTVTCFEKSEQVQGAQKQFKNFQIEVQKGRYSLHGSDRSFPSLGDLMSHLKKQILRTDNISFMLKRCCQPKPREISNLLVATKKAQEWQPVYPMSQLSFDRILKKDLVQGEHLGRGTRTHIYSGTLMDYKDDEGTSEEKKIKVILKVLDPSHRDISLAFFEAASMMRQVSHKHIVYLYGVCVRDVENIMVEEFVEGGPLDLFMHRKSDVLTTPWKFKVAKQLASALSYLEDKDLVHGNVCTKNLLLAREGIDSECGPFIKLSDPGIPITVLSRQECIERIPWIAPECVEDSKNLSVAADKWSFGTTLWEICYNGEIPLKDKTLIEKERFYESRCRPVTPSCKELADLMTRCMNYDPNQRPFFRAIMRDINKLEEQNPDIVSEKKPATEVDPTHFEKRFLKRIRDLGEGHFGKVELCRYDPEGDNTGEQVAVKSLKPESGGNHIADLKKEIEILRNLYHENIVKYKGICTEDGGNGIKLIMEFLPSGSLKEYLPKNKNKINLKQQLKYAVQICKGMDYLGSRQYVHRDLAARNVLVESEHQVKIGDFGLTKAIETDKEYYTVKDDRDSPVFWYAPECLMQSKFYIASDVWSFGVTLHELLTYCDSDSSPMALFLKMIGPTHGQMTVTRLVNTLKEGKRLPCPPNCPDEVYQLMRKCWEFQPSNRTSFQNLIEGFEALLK
pIC50: −log10 of the molar value.
assay.readout: pIC50

a: CCNC(=O)c1ccc(Nc2nccc(N3C[C@@H]4CC[C@H]3CN4C(=O)C3CC3)n2)cc1
b: Cn1cc(Nc2nccc(N3CC4CC[C@H](C3)N4C(=O)NCC(F)(F)F)n2)cn1 (single isomer, unassigned)
## Task Of a and b , which carries the smaller reported pIC50 figure? Write down the label attached to your selection.
## Result a
(a: 6.13, b: 7.85)

###

# tested.on: JAK1/TYK2 (Homo sapiens, UniProt P23458+P29597)
# Sequence (P23458 whole entry): as above
# Sequence (P29597 whole entry): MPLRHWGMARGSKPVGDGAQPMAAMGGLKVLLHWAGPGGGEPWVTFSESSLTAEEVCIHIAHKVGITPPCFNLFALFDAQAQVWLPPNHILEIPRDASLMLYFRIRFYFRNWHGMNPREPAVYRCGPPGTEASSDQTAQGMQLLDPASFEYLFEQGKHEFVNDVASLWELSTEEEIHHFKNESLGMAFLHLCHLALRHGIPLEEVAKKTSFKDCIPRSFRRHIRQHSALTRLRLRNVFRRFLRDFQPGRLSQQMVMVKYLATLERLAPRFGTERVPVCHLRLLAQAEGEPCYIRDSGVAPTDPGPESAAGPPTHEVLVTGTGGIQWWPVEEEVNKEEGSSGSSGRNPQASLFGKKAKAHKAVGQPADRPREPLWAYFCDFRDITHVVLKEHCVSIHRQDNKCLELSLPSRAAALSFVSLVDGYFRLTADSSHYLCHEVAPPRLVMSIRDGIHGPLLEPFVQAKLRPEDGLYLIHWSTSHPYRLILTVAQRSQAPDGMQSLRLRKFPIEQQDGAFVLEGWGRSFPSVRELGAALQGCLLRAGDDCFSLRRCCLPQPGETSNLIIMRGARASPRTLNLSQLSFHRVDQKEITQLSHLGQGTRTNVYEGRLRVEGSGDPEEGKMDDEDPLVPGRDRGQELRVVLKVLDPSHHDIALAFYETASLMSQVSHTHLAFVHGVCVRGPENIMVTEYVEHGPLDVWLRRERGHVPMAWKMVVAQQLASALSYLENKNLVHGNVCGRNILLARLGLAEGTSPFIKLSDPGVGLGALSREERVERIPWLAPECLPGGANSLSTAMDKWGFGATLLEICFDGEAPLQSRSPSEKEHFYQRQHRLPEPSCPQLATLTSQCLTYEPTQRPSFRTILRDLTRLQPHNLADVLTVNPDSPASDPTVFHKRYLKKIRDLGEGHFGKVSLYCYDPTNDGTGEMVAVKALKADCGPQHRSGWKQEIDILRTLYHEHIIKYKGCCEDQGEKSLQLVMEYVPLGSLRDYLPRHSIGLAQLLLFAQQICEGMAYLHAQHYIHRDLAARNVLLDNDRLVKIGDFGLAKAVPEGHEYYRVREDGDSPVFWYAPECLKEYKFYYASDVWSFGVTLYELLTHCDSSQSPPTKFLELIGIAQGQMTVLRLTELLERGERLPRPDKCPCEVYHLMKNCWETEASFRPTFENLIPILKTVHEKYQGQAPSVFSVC
# protocol: Inhibition of JAK1/TYK2 signaling pathway in human lymphocytes of whole blood assessed as reduction in IFN-alpha induced STAT3 phosphorylation preincubated for 45 mins followed by IFN-alpha addition and measured measured after 15 mins by FACS assay
pIC50: −log10 of the molar value.
assay.readout: pIC50

INSERT INTO measurements (molecule, tested_on, quantitative_readout) VALUES
  ('Cn1cc(Nc2nccc(N3CC4CC[C@H](C3)N4C(=O)NCC(F)(F)F)n2)cn1 (single isomer, unassigned)', 'JAK1/TYK2 (Homo sapiens, UniProt P23458+P29597)', 7.29);

a: Cn1cc(Nc2ncc(F)c(N3CC4CC[C@H](C3)N4C(=O)C3CC3)n2)cn1 (single isomer, unassigned)
b: CCNC(=O)c1ncc(Nc2ncc(F)c(N3CC4CC[C@H](C3)N4C(=O)C3CC3)n2)cc1C (single isomer, unassigned)
## Task Of a and b , which carries the smaller reported pIC50 figure? Write down the label attached to your selection.
## Result b
(b: 6.41, a: 6.84)

###

# tested.on: Tyrosine-protein kinase JAK2 (Homo sapiens, UniProt O60674)
# Sequence (O60674 whole entry): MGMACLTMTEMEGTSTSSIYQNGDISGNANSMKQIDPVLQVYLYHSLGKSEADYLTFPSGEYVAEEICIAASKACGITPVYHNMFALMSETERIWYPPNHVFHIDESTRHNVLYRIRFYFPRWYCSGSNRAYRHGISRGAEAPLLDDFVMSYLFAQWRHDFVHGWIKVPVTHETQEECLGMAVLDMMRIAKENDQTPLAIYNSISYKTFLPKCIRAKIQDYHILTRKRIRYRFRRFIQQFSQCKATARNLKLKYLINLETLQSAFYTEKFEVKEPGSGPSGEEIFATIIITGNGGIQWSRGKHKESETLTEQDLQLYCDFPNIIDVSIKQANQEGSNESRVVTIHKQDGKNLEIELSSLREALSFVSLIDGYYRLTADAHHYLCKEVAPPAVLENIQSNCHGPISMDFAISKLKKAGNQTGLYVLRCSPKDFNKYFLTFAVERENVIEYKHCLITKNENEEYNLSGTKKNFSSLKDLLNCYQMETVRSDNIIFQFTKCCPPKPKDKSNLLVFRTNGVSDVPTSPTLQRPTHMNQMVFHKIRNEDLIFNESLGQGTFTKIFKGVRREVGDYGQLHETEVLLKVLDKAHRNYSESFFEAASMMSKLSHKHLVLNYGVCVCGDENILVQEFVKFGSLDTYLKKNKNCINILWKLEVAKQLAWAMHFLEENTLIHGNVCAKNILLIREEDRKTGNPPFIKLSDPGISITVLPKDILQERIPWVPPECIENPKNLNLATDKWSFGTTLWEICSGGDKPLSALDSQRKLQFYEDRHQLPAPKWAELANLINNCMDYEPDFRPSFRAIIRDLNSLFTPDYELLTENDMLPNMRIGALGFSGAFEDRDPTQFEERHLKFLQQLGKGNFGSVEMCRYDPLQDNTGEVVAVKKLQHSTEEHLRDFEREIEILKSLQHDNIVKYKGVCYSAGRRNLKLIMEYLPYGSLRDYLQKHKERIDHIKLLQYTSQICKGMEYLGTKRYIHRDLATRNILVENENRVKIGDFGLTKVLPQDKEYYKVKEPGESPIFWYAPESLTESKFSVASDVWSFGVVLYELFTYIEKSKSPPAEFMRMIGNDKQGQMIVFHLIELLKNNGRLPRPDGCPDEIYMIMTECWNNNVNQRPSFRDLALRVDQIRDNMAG
# protocol: Inhibition of human JAK2 using fluorescence labeled peptide as substrate and using ATP at its Km level by microfluidic based mobility shift assay
assay.readout: IC50 (nM)

a: CCNC(=O)c1ccc(Nc2nccc(N3CCN(C(=O)CC#N)CC3)n2)cc1
b: CCNC(=O)c1ccc(Nc2nccc(N3C[C@@H]4C[C@H]3CN4C(=O)CC#N)n2)cc1
## Task Exercise: compare a and b ; which one has the greater IC50? Write down the label attached to your selection.
## Result a
(a: 1080 nM, b: 366 nM)

###

# protocol: Solubility of compound in fasted state simulated intestinal fluid
# Assay type: physicochemical
assay.readout: solubility

## Task Which solubility value is on record for Cn1cc(Nc2nccc(N3CC4CC[C@H](C3)N4C(=O)[C@@H]3CC3(F)F)n2)cn1 (single isomer, unassigned) ?
## Result > 7000 µg/mL

###

pIC50: −log10 of the molar value.
Observed pIC50, system Non-receptor tyrosine-protein kinase TYK2 (Homo sapiens).
assay.readout: pIC50

I: CCNC(=O)c1ccc(Nc2ncc(F)c(N3CC4CC[C@H](C3)N4C(=O)C3CC3)n2)nc1 (single isomer, unassigned)
II: CCNC(=O)c1ncc(Nc2ncc(F)c(N3CC4CC[C@H](C3)N4C(=O)C3CC3)n2)cc1C (single isomer, unassigned)
## Task Of I and II , which carries the smaller reported pIC50 figure? Write down the label attached to your selection.
## Result I
(I: 5.14, II: 7.32)

###

# protocol: Fraction unbound in human plasma
# Format: ADME, cell-free
assay.readout: fraction unbound
I'd appreciate a reply containing only the number, no unit.

## Task Which fraction unbound value is on record for Cn1cc(Nc2nccc(N3CC4CC[C@H](C3)N4C(=O)[C@@H]3CC3(F)F)n2)cn1 (single isomer, unassigned) ?
## Result 0.61

###

# protocol: Solubility of compound in fed state simulated intestinal fluid
# Format: physicochemical
assay.readout: solubility

## Task Which solubility value is on record for Cn1cc(Nc2nccc(N3CC4CC[C@H](C3)N4C(=O)[C@@H]3CC3(F)F)n2)cn1 (single isomer, unassigned) ?
## Result > 7000 µg/mL

###

pIC50: −log10 of the molar value.
Observed pIC50, system Non-receptor tyrosine-protein kinase TYK2 (Homo sapiens).
assay.readout: pIC50

A: CCNC(=O)c1ccc(Nc2nccc(N3C[C@@H]4C[C@H]3CN4C(=O)C3CC3)n2)cc1
B: Cn1cc(Nc2nccc(N3CC4CC[C@H](C3)N4C(=O)NCC(F)(F)F)n2)cn1 (single isomer, unassigned)
C: Cn1cc(Nc2ncc(F)c(N3CC4CC[C@H](C3)N4C(=O)C3CC3)n2)cn1 (single isomer, unassigned)
D: CCNC(=O)c1ccc(Nc2nccc(N3C[C@@H]4CC[C@H]3CN4C(=O)C3CC3)n2)cc1
## Task Reorder the items by pIC50, least to greatest. List the labels in the requested order.
## Result A, D, C, B
(A: 5.76, D: 6.83, C: 7.28, B: 7.55)

###

# protocol: Cmax in complete freund's adjuvant-induced Lewis rat arthritis model plasma at 3 mg/kg, po qd administered via gavage treated for 7 consecutive days measured after 30 mins post last dose
# Assay type: ADME, organism-based
# Set-up: dose 3 mg/kg, route oral
# test.settings: in vivo, 0.5 h
assay.readout: Cmax (µM)
All answers are understood in µM, so give the number only.

## Task Which Cmax value is on record for Cc1ccc(S(=O)(=O)O)cc1.Cn1cc(Nc2nccc(N3CC4CC[C@H](C3)N4C(=O)[C@@H]3CC3(F)F)n2)cn1 (single isomer, unassigned) ?
## Result 3.54

###

# protocol: Passive apparent permeability from apical to basolateral side in RRCK cells
# Format: ADME, cell-based, Canis lupus familiaris, MDCKII-LE
# test.settings: dog, MDCK
assay.readout: Papp A→B

INSERT INTO results (compound, result) VALUES
  ('CCNC(=O)c1ccc(Nc2ncc(F)c(N3CC4CC[C@H](C3)N4C(=O)C3CC3)n2)nc1 (single isomer, unassigned)', '5.6 to 18.8 ×10⁻⁶ cm/s'),
  ('CCNC(=O)c1ncc(Nc2ncc(F)c(N3CC4CC[C@H](C3)N4C(=O)C3CC3)n2)cc1C (single isomer, unassigned)', '5.6 to 18.8 ×10⁻⁶ cm/s'),
  ('Cn1cc(Nc2nccc(N3CC4CC[C@H](C3)N4C(=O)[C@@H]3CC3(F)F)n2)cn1 (single isomer, unassigned)', '18.8 ×10⁻⁶ cm/s'),
  ('O=C(C1CC1)N1C2CC[C@@H]1CN(c1nc(Nc3cnn(CCO)c3)ncc1F)C2 (single isomer, unassigned)', '5.6 to 18.8 ×10⁻⁶ cm/s');

## Task Which Papp A→B value is on record for Cn1cc(Nc2nccc(N3CC4CC[C@H](C3)N4C(=O)NCC#N)n2)cn1 (single isomer, unassigned) ?
## Result 0.6 ×10⁻⁶ cm/s

## Task Which Papp A→B value is on record for Cn1cc(Nc2ncc(F)c(N3CC4CC[C@H](C3)N4C(=O)C3CC3)n2)cn1 (single isomer, unassigned) ?
## Result 5.6 to 18.8 ×10⁻⁶ cm/s

###

# tested.on: JAK1/TYK2 (Homo sapiens, UniProt P23458+P29597)
assay.readout: fIC50 (nM)

Here are 5 compounds together with their reported answers.
INSERT INTO measurements (compound, tested_on, assay_readout, unit_annotation, quantitative_readout) VALUES
  ('Cn1cc(Nc2nccc(N3CC4CC[C@H](C3)N4C(=O)NCC(F)(F)F)n2)cn1 (single isomer, unassigned)', 'JAK1/TYK2 (Homo sapiens, UniProt P23458+P29597)', 'fIC50', 'nM', 26),
  ('CCNC(=O)c1ncc(Nc2ncc(F)c(N3CC4CC[C@H](C3)N4C(=O)C3CC3)n2)cc1C (single isomer, unassigned)', 'JAK1/TYK2 (Homo sapiens, UniProt P23458+P29597)', 'fIC50', 'nM', 91),
  ('O=C(C1CC1)N1C2CC[C@@H]1CN(c1nc(Nc3cnn(CCO)c3)ncc1F)C2 (single isomer, unassigned)', 'JAK1/TYK2 (Homo sapiens, UniProt P23458+P29597)', 'fIC50', 'nM', 70),
  ('Cn1cc(Nc2ncc(F)c(N3CC4CC[C@H](C3)N4C(=O)C3CC3)n2)cn1 (single isomer, unassigned)', 'JAK1/TYK2 (Homo sapiens, UniProt P23458+P29597)', 'fIC50', 'nM', 84),
  ('Cn1cc(Nc2nccc(N3CC4CC[C@H](C3)N4C(=O)NCC#N)n2)cn1 (single isomer, unassigned)', 'JAK1/TYK2 (Homo sapiens, UniProt P23458+P29597)', 'fIC50', 'nM', 73);

P: Cn1cc(Nc2nccc(N3CC4CC[C@H](C3)N4C(=O)C3CC3)n2)cn1 (single isomer, unassigned)
Q: CCNC(=O)N1C2CC[C@@H]1CN(c1ccnc(Nc3cnn(C)c3)n1)C2 (single isomer, unassigned)
## Task Exercise: compare P and Q ; which one has the greater fIC50? Write down the label attached to your selection.
## Result P
(P: 91 nM, Q: 60 nM)
